# EXPERIMENT_SUMMARY: inhibitors of DENV2 cytopathic effect, primary screen, cell-based, plate reader, single concentration (AID 651640);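 also: 0% = median of neutral control wells and 100% = median of positive control wells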
# MEASUREMENT_SETUP: DENV2-infected cells, cytopathic effect rescue, at 9.99 µM
Out of some 350,000 compounds screened, about 6,000 (1.7%) were called active. Not shown: some 5% with an inconclusive outcome. Rule as the data show it: active = CPE inhibition above about 20% (passing the limit was not always enough); inconclusive = no clear call, values can overlap the other calls; tested in BHK-21 cells. Many of the other results were omitted from the sample, so actives are more common in it than they were.
Outcomes: true for active, false for inactive

COMPOUND	ASSIGNED_CLASS
CC(C)(C)[S@@](=O)N1Cc2cc(C(=O)N3CCCCC3)nc(-c3cccc(-c4cccc(C#N)c4)c3)c2[C@H]1CCO	false
CC(C)(C)[S@](=O)N1Cc2cc(C(=O)N3CCCCC3)nc(-c3cccc(Br)c3)c2[C@@H]1CCO	true
COc1ccc(C2CC(c3cccs3)=NN2C(=O)CCC(=O)O)cc1OC (centres undefined)	true
COC(=O)CCCCCN1C(=O)NC(c2ccc(-c3ccccc3)cc2)C(C(=O)OCc2ccccc2)=C1C (centres undefined)	false
CCC(CC)COC(=O)C1=C(C)NC(=O)NC1c1ccc([N+](=O)[O-])cc1 (centres undefined)	false
CN(C)CC#Cc1ccc([C@H]2[C@@H](CO)N(C(=O)C3CCC3)[C@H]2C#N)cc1	true
COc1ccc(-c2ccccc2[C@H]2[C@@H](CO)N(C(=O)C3CCC3)[C@H]2C#N)cc1	true
COc1ccc(C2=NN(C(=O)CCC(=O)O)C(c3cccs3)C2)cc1OC (centres undefined)	false
COc1ccc(-c2ccccc2[C@H]2[C@@H](C#N)N(C(=O)C3CCC3)[C@@H]2CO)cc1	false

====

# EXPERIMENT_SUMMARY: inhibitors of DENV2 cytopathic effect, primary screen, cell-based, plate reader, single concentration (AID 651640);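 also: 0% = median of neutral control wells and 100% = median of positive control wells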
# MEASUREMENT_SETUP: DENV2-infected cells, cytopathic effect rescue, at 9.99 µM
Out of some 350,000 compounds screened, about 6,000 (1.7%) were called active. Another 5% or so got no clear call; they are omitted. Rule as the data show it: active = CPE inhibition above about 20% (passing the limit was not always enough); inconclusive = no clear call, values can overlap the other calls; tested in BHK-21 cells. Many of the other results were omitted from the sample, so actives are more common in it than they were.
Outcomes: active, inactive

STRUCTURE_NOTATION	ASSIGNED_CLASS
CCN1C(=O)N[C@@H](CCc2ccccc2)C(C(=O)OC)=C1C	inactive
Cc1ccccc1-c1ccc([C@@H]2[C@@H](CO)N3CCCCN(C(=O)Nc4cccc(F)c4)C[C@H]23)cc1	inactive
O=C([C@@H]1[C@@H](CO)[C@@H]2Cn3c(ccc(-c4cncnc4)c3=O)[C@@H]2N1C(=O)C1CCC1)N1CCCCC1	inactive
CC(C)NC(=O)N1[C@@H]2CN(C(=O)Nc3ccc(F)cc3)c3ccccc3[C@@H]2[C@@H]1CO	inactive
CC(C)NC(=O)N1C[C@H]2[C@@H](c3ccccc31)[C@H](CO)N2C(=O)c1ccccc1F	inactive
COc1ccc(S(=O)(=O)N2C[C@@H](O)COC[C@H]3O[C@H](CC(=O)N[C@H]4CCN(Cc5ccccc5)C4)CC[C@@H]32)cc1	inactive
C=CCOc1c(CNn2cn[nH]c2=S)cccc1OC	inactive
CO[C@@H]1CN(C)C(=O)c2cc(NC(=O)C3CCOCC3)ccc2OC[C@@H](C)NC[C@@H]1C	active
Cc1noc(C)c1NC(=O)Nc1ccc2c(c1)C(=O)N([C@H](C)CO)C[C@@H](C)[C@@H](CN(C)Cc1ccncc1)OCCCC[C@H](C)O2	inactive
COCCN1C(=O)N[C@@H](CCc2ccccc2)[C@H](C(C)=O)[C@H]1C	inactive
CO[C@H]1CN(C)C(=O)c2cc(NS(=O)(=O)c3ccccc3)ccc2OC[C@H](C)NC[C@@H]1C	active
C=CCOc1ccccc1CNn1c(C)n[nH]c1=S	active
CC(C)NC(=O)N(C)C[C@H]1Oc2ccc(N(C)C)cc2C(=O)N([C@@H](C)CO)C[C@H]1C	inactive
C[C@H]1CN([C@@H](C)CO)C(=O)c2c(c3ccccc3n2C)-c2ccccc2CO[C@H]1CN(C)Cc1ccc2c(c1)OCO2	inactive
C=CCn1c(-c2ccccc2OCC)n[nH]c1=S	inactive
CCN1C(=S)N[C@@H](CCc2ccccc2)[C@H](C(=O)OC)[C@H]1C	active
CO[C@@H]1CN(C)C(=O)c2cc(NS(=O)(=O)c3ccc(Cl)cc3)ccc2OC[C@H](C)NC[C@@H]1C	inactive
O=C(C[C@@H]1C=C[C@@H](NS(=O)(=O)c2ccc(F)cc2)[C@@H](CO)O1)NCCN1CCCCC1	inactive
COc1cccc(-c2ccc3n(c2=O)C[C@@H]2[C@@H](CO)[C@H](C(=O)NCC4CC4)N(C(=O)NC(C)C)[C@H]32)c1	inactive
CC(C)NC(=O)N1[C@H](CO)[C@@H]2c3ccccc3N(C(=O)c3ccccc3F)C[C@@H]21	active
CCC(=O)N1[C@@H](CO)[C@@H]2c3ccccc3N(C(=O)c3ccccc3F)C[C@@H]21	active
O=C(NC1CCCC1)[C@H]1[C@H](CO)[C@H]2Cn3c(cccc3=O)[C@H]2N1C(=O)NC1CCCC1	inactive
C/C=C/c1ccc([C@H]2[C@@H](CO)N[C@@H]2CN(CC)C(=O)CN2CCOCC2)cc1	inactive
O=C(Nc1ccc(CN2CCOCC2)cc1)c1cc(Cl)ccc1Cl	inactive
CC(C)NC(=O)N(C)C[C@H]1OCCCC[C@H](C)Oc2ccc(NS(=O)(=O)c3cccs3)cc2C(=O)N([C@H](C)CO)C[C@@H]1C	inactive
Cc1noc(C)c1S(=O)(=O)N(C)C[C@@H]1OCCCC[C@H](C)Oc2ccc(NC(=O)CCC(F)(F)F)cc2C(=O)N([C@H](C)CO)C[C@H]1C	inactive
C[C@@H]1CN([C@H](C)CO)C(=O)c2cc(NC(=O)Nc3ccc(F)cc3)ccc2O[C@@H](C)CCCCO[C@@H]1CN(C)S(=O)(=O)c1cn(C)cn1	inactive
C[C@@H]1CN([C@@H](C)CO)C(=O)c2cccc(NC(=O)NC3CCCCC3)c2O[C@@H]1CN(C)CC1CCCCC1	inactive
O=C(c1ccccc1F)N1C[C@H]2[C@@H](c3ccccc31)[C@@H](CO)N2C(=O)c1ccc(F)cc1	inactive
CC(C)C(=O)Nc1ccc2c(c1)C(=O)N(C)[C@@H]1CC[C@@H](CC(=O)NCCc3ccccc3)O[C@H]1CO2	inactive
O=C(C[C@@H]1C[C@@H]2c3cc(NC(=O)CC4CC4)ccc3O[C@@H]2[C@@H](CO)O1)NCCN1CCCCC1	inactive
CCOc1ccc(C(=O)Nc2ccc(CN3CCOCC3)cc2)cc1Cl	active
CCCNC(=O)N1[C@@H]2CN(C)c3ccccc3[C@@H]2[C@@H]1CO	inactive
COCC(=O)N1CC[C@@H]2[C@@H](CO)Nc3ccc(-c4ccc(C(=O)N(C)C)cc4)cc3[C@@H]21	inactive

====

# EXPERIMENT_SUMMARY: inhibitors of DENV2 cytopathic effect, primary screen, cell-based, plate reader, single concentration (AID 651640);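 also: 0% = median of neutral control wells and 100% = median of positive control wells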
# MEASUREMENT_SETUP: DENV2-infected cells, cytopathic effect rescue, at 9.99 µM, active compounds read high
Screen size: about 350,000 compounds; about 6,000 (1.7%) were called active. Not shown: some 5% with an inconclusive outcome. This excerpt belongs to a sample that is enriched for actives.

STRUCTURE_NOTATION	CPE inhibition
O=C(NCC[C@H]1CC[C@@H](NC(=O)C2CCCCC2)[C@@H](CO)O1)c1ccc(F)cc1	50.9% (active)
C[C@@H]1CCCCO[C@@H](CN(C)C(=O)CCC(F)(F)F)[C@H](C)CN([C@@H](C)CO)C(=O)c2cc(NC(=O)CCCN(C)C)ccc2O1	3.1% (inactive)
COCC(=O)N[C@@H]1C[C@@H]2O[C@@H](CO)CC[C@@H]2O[C@@H]1CCc1ccc(-c2ccccc2)cc1	14.8% (inactive)
COc1ccc(/C=C/C(=O)c2c(O)cc(OC)cc2OC)cc1	-8.14% (inactive)
O=C(NCC[C@H]1CC[C@@H](NC(=O)C2CC2)[C@H](CO)O1)c1ccc(F)cc1	-2.58% (inactive)
Cc1ccc(S(=O)(=O)Nc2ccc3c(c2)C(=O)N([C@H](C)CO)C[C@@H](C)[C@H](CN(C)S(=O)(=O)c2ccc(C)cc2)OCCCC[C@@H](C)O3)cc1	1.84% (inactive)
O=C(Nc1ccccc1)N[C@@H]1CC[C@H](CCn2cc(-c3ccccc3F)nn2)O[C@@H]1CO	10.9% (inactive)
CCCC(=O)N1CC2(C1)CN(C(=O)COC)[C@@H](CO)c1c2c2ccc(OC)cc2n1C	10.6% (inactive)

====

# EXPERIMENT_SUMMARY: inhibitors of DENV2 cytopathic effect, primary screen, cell-based, plate reader, single concentration (AID 651640);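 also: 0% = median of neutral control wells and 100% = median of positive control wells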
# MEASUREMENT_SETUP: DENV2-infected cells, cytopathic effect rescue, at 9.99 µM, active compounds read high
The campaign covered roughly 350,000 compounds. About 6,000 (1.7%) were called active. About 5% were inconclusive and are not listed. The entries come from a sample that favours actives as a whole.

MOLECULE	UNIT_LABEL	CPE inhibition
C[C@H](O)C#Cc1cnc2c(c1)C(=O)N([C@H](C)CO)C[C@H](C)[C@@H](CN(C)C(=O)Nc1ccc(F)cc1)O2	%	8.69
CN1C(=O)c2cc(NC(=O)c3cnccn3)ccc2OC[C@@H]2O[C@H](CC(=O)O)CC[C@@H]21	%	0.738
CCOc1ccc(/C=C/C(=O)N(CC)CC(=O)NCc2cccs2)cc1OC	%	67.5
O=C(O)c1ccccc1-c1cccc2nncn12	%	-0.993
C/C=C/c1ccc([C@@H]2[C@@H](CO)N(CC3CCCC3)C23CN(S(=O)(=O)CC)C3)cc1	%	-5.75
CCC(CO)Oc1cc(NC(=O)c2cccc3ccccc23)c2ncn(C(C)C)c2c1 (centres undefined)	%	-11.1
C[C@H](CO)N1C[C@H](C)[C@@H](CN(C)C(=O)c2ccncc2)Oc2ncc(-c3ccncc3)cc2C1=O	%	0.501
CCCN(C)C[C@H]1Oc2ncc(-c3ccccc3OC)cc2C(=O)N([C@H](C)CO)C[C@H]1C	%	1.17
C[C@H](CO)N1C[C@H](C)[C@@H](CN(C)S(=O)(=O)c2cccs2)OCc2ccccc2-c2ccccc2C1=O	%	0.48
COc1ccc(CN(C)C[C@H]2Oc3ccc(NC(=O)CCN4CCOCC4)cc3C(=O)N([C@@H](C)CO)C[C@H]2C)cc1	%	8.91
C/C=C/c1ccc([C@@H]2[C@H](CO)N(CC3CCOCC3)C23CN(S(=O)(=O)CC)C3)cc1	%	73.3
C[C@@H]1CN([C@H](C)CO)C(=O)c2cc(C#CCC3CCCC3)cnc2O[C@H]1CN(C)C(=O)c1cnccn1	%	4.48
O=S(=O)(Nc1ncnc2sccc12)c1cccc(F)c1	%	-1.13
O=C(/C=C/c1ccc2c(c1)OCCO2)c1ccc(O)cc1	%	-0.309
C[C@H]1COC(=O)[C@H](CC(=O)OC(C)(C)C)C/C=C\C[C@@H](CC(=O)N[C@H](CO)Cc2ccccc2)C(=O)N1	%	15.2
COc1ccc2c3c(n(C)c2c1)[C@@H](CO)N(CC1CC1)CC31CN(C(=O)Nc2c(C)noc2C)C1	%	7.58
CCNC(=O)C[C@H]1CC[C@@H]2[C@H](COc3ccc(NC(=O)Nc4cccc(Cl)c4)cc3C(=O)N2C)O1	%	3
CC(=O)N1[C@H](CN(C)S(=O)(=O)c2ccccc2)[C@H](c2ccccc2)[C@@H]1CO	%	15.4
O=C(Nc1ccccc1F)N1CCCCN2[C@H](CO)[C@@H](c3ccc(-c4cccnc4)cc3)[C@H]2C1	%	5.39
O=C(Nc1nccs1)[C@@H]1[C@@H](CO)[C@@H]2Cn3c(ccc(-c4cccnc4)c3=O)[C@@H]2N1CC1CC1	%	-4.43
C[C@@H]1CN([C@H](C)CO)C(=O)c2cc(NC(=O)CCN3CCOCC3)ccc2O[C@H]1CN(C)Cc1ccc(Oc2ccccc2)cc1	%	25.3
CC(C)(C)OC(=O)C[C@@H]1C/C=C\C[C@@H](CC(=O)N[C@H](CO)Cc2ccccc2)C(=O)NCCOC1=O	%	-7.88
C[C@@H]1CN([C@@H](C)CO)C(=O)c2cc(NC(=O)Nc3cccc4ccccc34)ccc2O[C@@H]1CN(C)Cc1ccc(-c2ccccc2)cc1	%	6.66
CN1C(=O)c2cc(NC(=O)C3CCOCC3)ccc2OC[C@H]2O[C@@H](CC(=O)NCC3CCCCC3)CC[C@@H]21	%	1.63
CC1(C)CN(CCc2ccccc2)C(=O)[C@H]1CC(=O)Nc1ccc(Br)cc1	%	0.989
Cc1cc(F)ccc1S(=O)(=O)Nc1ncnc2scc(-c3ccc(F)cc3)c12	%	46.8
CCCC/C=C/c1cccc2nncn12	%	28.7
CC(C)(C)OC(=O)C[C@@H]1C/C=C\C[C@H](CC(=O)N[C@@H](CO)Cc2ccccc2)C(=O)N[C@H](Cc2ccccc2)COC1=O	%	21.2
CCCCN1CC(C)(C)[C@H](CC(=O)Nc2ccc(Br)cc2)C1=O	%	6.43
CC1(C)CN(Cc2cccnc2)C(=O)[C@H]1CC(=O)Nc1ccc(Br)cc1	%	30.1
CCC(CO)Oc1cc(NC(=O)c2cccc(F)c2)c2ncn(C(C)C)c2c1 (centres undefined)	%	-10.5
O=C(CC1CC1)N1[C@H](CO)[C@@H]2c3ccccc3N(S(=O)(=O)c3ccc(F)cc3)C[C@@H]21	%	-3.84
C[C@H]1CN([C@@H](C)CO)C(=O)c2cccc(NC(=O)Nc3ccc(F)cc3)c2O[C@@H]1CN(C)C(=O)Nc1ccc2c(c1)OCO2	%	-3.44
C[C@@H]1CN([C@@H](C)CO)C(=O)c2cc(NC(=O)Cc3ccccc3)ccc2O[C@@H]1CN(C)Cc1ccc(Oc2ccccc2)cc1	%	-2.18
